system: pGAT (Zif268-C7 finger 2 variant) finger 2 helix -2 to 6 = STSGNLVR in Zif268-C7 (synthetic)
measurementNotes: EMSA
testParameters: [none]
quantityName: Kd (nM)

| constructSequence | quantityName | measuredValue |
| --- | --- | --- |
| GGACGCATCCGCGGGTTTTCCCGCGGATGCGTCC [F2 site GAT] | Kd | 3 |

====

system: pmGGT (Zif268-C7 finger 2 variant) finger 2 helix -2 to 6 = STSGHLVR in Zif268-C7 (synthetic)
measurementNotes: EMSA
testParameters: [7-9,26-28]
pKd: −log10 of the molar value.
Listed here: items and their measured pKd.

| constructSequence | comparisonSign | pKd |
| --- | --- | --- |
| GGACGCGCCCGCGGGTTTTCCCGCGGGCGCGTCC [F2 site GGC] | < | 5.62 |
| GGACGCACCCGCGGGTTTTCCCGCGGGTGCGTCC [F2 site GGT] | = | 7.82 |
